- run.description: Isoelectric point (Ip) of the peptides
- Assay type: physicochemical

sequence.string: APPGARPPPPPPPPADQPQQGP (Sus sp) [Peptide 6, Peptide of porcine origin]
Ip (isoelectric point): 5.88
--
sequence.string: APPGARPLPGPPPPGPPPPGP (listed as Sus sp.) [Peptide 7, Peptide of porcine origin]
Ip (isoelectric point): 9.79
--
sequence.string: GPPPQGGNKPQGPPPPG (listed as Homo sapiens) [Peptide 1a]
Ip (isoelectric point): 8.75
--
sequence.string: GPPPPGKPQ (listed as Homo sapiens) [Peptide 1e]
Ip (isoelectric point): 8.75

---

- run.description: Isoelectric point (Ip) of the peptides
- Type: physicochemical
Ends that are not written are not given here.
Ip (isoelectric point) vs 9: less than gives Fulfilled; not less than gives Not fulfilled.

substance: APPGARPPPGPPPPGPPPPGP (listed as Sus sp.) [Peptide 4, Peptide of porcine origin]
class: Not fulfilled

substance: RPPPGPPPPGPPPGP-OH [peptide 1413, RPPPGPPPPGPPPGP]
class: Not fulfilled

substance: GPPPQGGN (listed as Homo sapiens) [Peptide 1d]
class: Fulfilled

substance: RSPFFDL (listed as Sus sp.) [Peptide 5, Peptide of porcine origin]
class: Fulfilled
